test system: LOX IMVI melanoma; experiment: NCI-60 one-dose screen, 48 h; details: 10 µM unless noted
Compounds without any hit were thinned out: in the full panel of roughly 83,000, 20% have a hit. Active and inactive are the calls of the source. The calls were made as follows: active = growth percent below 10; inactive = the rest.
Classes used: active, inactive

smiles string | category
COc1ccc(N2CCC(=O)NC2=S)cc1 | inactive
COc1ccc2c3c([nH]c2c1)C(=O)c1nc(C)ccc1C3=O | inactive
Clc1ccc(Nc2nnc(COc3ccccc3)c3ccccc23)cc1 | active
Oc1c(Cl)cc(Cl)c2ccc(Cn3cc(-c4cc(F)cc(F)c4)nn3)nc12 | inactive
O=C(CCC(=O)N/N=C/c1ccccc1O)N/N=C/c1ccccc1O | inactive
OB(O)c1cccc(-c2nc3ccc4[nH]ncc4c3c3c2CCCC3)c1 | inactive

* * *

system: MDA-MB-231 breast; assay: NCI-60 one-dose screen, 48 h; conditions: 10 µM unless noted
About 83,000 compounds went through this panel and 20% of them were active in at least one assay; those are over-represented in the sample as a whole. Activity calls are given as the source filed them. The calls were made as follows: active = growth percent below 10; inactive = the rest.
Classes used: active, inactive

compound | category
O=C1c2cccnc2C(=O)c2c1c(C(=O)NCCn1ccnc1)c1ccccn21 | inactive
CCOC(=O)c1[nH]c(=O)c2c(C)nc(-c3ccccc3)cc2c1O | inactive
O=C1CC(N2C(=O)/C(=C/C(Cl)=C\c3ccc([N+](=O)[O-])cc3)SC2=S)C(=O)N1c1ccc(Cl)cc1 (stereo not given) | active
CC1=NN(c2nc(SCC(=O)Nc3nc4ccc(C)cc4s3)nc(-c3ccccc3)c2C#N)C(=O)C1 | inactive
COc1ccc2[nH]cc(C(c3cc(F)cc(F)c3)c3c[nH]c4ccc(OC)cc34)c2c1 | inactive
Nc1c(C(=O)Nc2ccncc2)sc2nc3c(cc12)CCCCCC3 | inactive
O=C1c2cccc(NCCN=Cc3cc(O)ccc3O)c2C(=O)c2c(NCCN=Cc3cc(O)ccc3O)cccc21 | active
CCOC(=O)CNP(=O)(OC[C@@H](Cc1ccccc1)NC(=O)c1cc2ccccc2s1)Oc1ccccc1 (stereo not given in full) | inactive
COc1ccc(-c2cc(-c3ccc(Cl)cc3)c(C#N)c(=O)n2CCCCC(=O)Nc2ccccc2N)cc1 | inactive
CC12CCC3c4ccccc4CCC3(CO1)C2 (stereo not given) | inactive
O=C(O)c1ccc(-n2cc(/C=N/Nc3ccc(F)cc3)c(-c3cc4ccccc4oc3=O)n2)cc1 | inactive
Cc1ccc(-c2nc3nc(-c4ccccc4)nc(N4CCNCC4)c3o2)cc1 | active
CC(C)c1ccc(COCc2cc(CN3CCCC3)c(O)c3ncccc23)cc1 | active
CC(C)(C)n1cc(-c2ccnc(NCCNS(=O)(=O)c3cccc(F)c3)c2)c(-c2ccccc2)n1 | inactive
COc1ccc(C(=O)C2C(c3ccc(OC)cc3)CN(C)C23C(=O)Nc2ccccc23)cc1 (stereo not given) | inactive
O=C(Cn1c(=O)sc2ccccc21)NNS(=O)(=O)c1ccccc1[N+](=O)[O-] | inactive
CC(C)NC1CCC(Nc2ccnc3cc(Cl)ccc23)CC1 (stereo not given) | inactive
COc1ccc(-c2csc(N(C(=O)N3CCN(c4cc5c(cc4F)c(=O)c(C(=O)O)cn5C4CC4)CC3)c3ccccc3)n2)cc1 | inactive
Cc1ccc(S(=O)(=O)N2CCCC2CO)cc1 (stereo not given) | inactive
O=C1/C(=C/c2ccc(Cl)cc2)COc2ccc(O)c(O)c21 | active

* * *

system: NCI-H23 lung; experiment: NCI-60 one-dose screen, 48 h; conditions: 10 µM unless noted
Compounds without any hit were thinned out: in the full panel of roughly 83,000, 20% have a hit. Calls of active or inactive are those of the source. How the source made its calls: active means growth percent below 10; inactive means the rest.
Classes used: Yes (active), No (inactive)

compound | category
CCCCCCC1(C)NCCO1 (centres undefined) | No
Cc1nc(-c2ccccc2)cc2c(O)c(C(=O)NN)[nH]c(=O)c12 | No
COc1ccc2c(c1)c(-c1noc(C(=O)c3cn(C)c4ccc(Br)cc34)n1)cn2C | No
O=C(CSc1nc2ccc([N+](=O)[O-])cc2[nH]1)Nc1cccc(C(F)(F)F)c1 | Yes
CN(C)CC(=O)Nc1ccc2ncnc(Nc3ccc(Oc4cccc(C(F)(F)F)c4)c(Cl)c3)c2c1 | No
O=C1Nc2ccccc2/C1=C\c1nc(-c2ccccc2)n2ccccc12 | No
O=C(N/N=C/c1ccc(F)cc1)c1ccc(C(F)(F)F)nc1Nc1cccc(C(F)(F)F)c1 | No
O=S(=O)(Nc1ccccc1)c1ccc(C2CC3(Cl)C(Cl)=C(Cl)C2(Cl)C3(Cl)Cl)cc1 (centres undefined) | No
Cc1cc(Cl)ccc1NC(=O)c1cc2ccccc2cc1O | Yes
CCCC(=O)NC(c1ccc2c(c1)OCO2)c1ccc2cccnc2c1O (centres undefined) | No
O=C(Nc1nc2ccc(F)cc2s1)c1cccnc1Nc1ccc(Cl)cc1 | Yes
COc1ccccc1Nc1nc2c(s1)C1=CC[C@H]3[C@@H]4CC[C@H]([C@H](C)CCCC(C)C)[C@@]4(C)CC[C@@H]3[C@@]1(C)CC2 | No
COc1ccc(C(c2cc(OC)c(OC)c(OC)c2)N2CCN(c3ccccc3)CC2)cc1 (centres undefined) | No
COc1cc2c(c(OC)c1OC)CCC(c1cccc(C(=O)Nc3cccc(Br)c3)c1)O2 (centres undefined) | No
O=C(CSc1nc2ccc([N+](=O)[O-])cc2[nH]1)Nc1ccc(F)cc1 | No
COc1ccc(C/C(C)=C(/c2ccc(OCCN3CCCCC3)cc2)c2ccc(OC(=O)NCc3ccccc3)cc2)cc1 | Yes
C=C1C(=O)O[C@H]2[C@H]1CC/C(COC(=O)CCSCCC(=O)OC/C1=C/CC[C@@]3(C)O[C@H]3[C@H]3OC(=O)C(=C)[C@@H]3CC1)=C\CC[C@@]1(C)O[C@@H]21 | Yes
COc1ccc(-c2ccc3cnc4sc(-c5ccc(OC)cc5)nc4c3n2)cc1 | No
O=C1/C(=C/c2ccccc2Br)COc2ccc(O)c(O)c21 | No

* * *

test system: MDA-MB-435 melanoma; test: NCI-60 one-dose screen, 48 h; settings: 10 µM unless noted
Compounds without any hit were thinned out: in the full panel of roughly 83,000, 20% have a hit. Active and inactive are the calls of the source. The calls were made as follows: active = growth percent below 10; inactive = the rest.
Classes used: active, inactive

molecule | category
CCOc1nc(-c2ccccc2)cc2c(O)c(C(=O)NN)[nH]c(=O)c12 | inactive
COC(=O)[C@]1(C)CCC[C@]2(C)[C@H]3C[C@H]4C(C(C)C)=C[C@]3(CC[C@H]21)[C@H]1[C@@H]4[C@@H](OCCC#N)CC[C@@H]1OCCC#N | inactive
CCN1CCN(c2cc(C(=O)Nc3nc(-c4cc(OC)c(OC)c(OC)c4)cs3)cc(C(F)(F)F)c2)CC1 | inactive
C=CC(=O)NCc1ccc(Nc2nccc(-c3ccc(N4CCCC4)c(C#N)c3)n2)cc1 | inactive
N#CC1=C(N)Oc2c(sc3c(F)cccc23)C1c1ccc(F)cc1 (centres undefined) | active
CCCC(=O)NC(c1ccc2c(c1)OCO2)c1ccc2cccnc2c1O (centres undefined) | inactive
CC(C)c1ccc(NC(=O)Nc2ccc(NC(=O)CCCC(=O)NOCc3ccccc3)cc2)cc1 | inactive
Cc1nc2sc(C(=O)Nc3cccc(Cl)c3C)c(N)c2cc1C(=O)c1ccccc1 | active
Nc1c(C(=O)Nc2ccccc2Cl)sc2nc3c(cc12)C(O)CCC3 (centres undefined) | active

* * *

test system: OVCAR-8 ovarian; test: NCI-60 one-dose screen, 48 h; conditions: 10 µM unless noted
This is part of a sample that, as a whole, favours compounds with a hit. Of some 83,000 tested, about 20% had one in any assay. Calls of active or inactive are those of the source. The calls were made as follows: active = growth percent below 10; inactive = the rest.
Classes used: true (1) (active), false (0) (inactive)

compound | category
C/C(=C(/c1ccc(Cl)cc1)c1ccc(OCCN2CCCC2)cc1)c1ccc(Cl)cc1 | false (0)
CN1CCN(c2ccc(NC(=O)c3nc4ccc5[nH]ncc5c4c4c3CCCC4)cc2C(F)(F)F)CC1 | true (1)
COc1ccc(OC)c(C(=O)/C=C/c2cc3c(c(OC)c2OC)OCO3)c1 | false (0)
OCCOCCN(Cc1ccccn1)Cc1cc(I)cc(I)c1O | false (0)
CCc1nc2c(=O)[nH]cnc2o1 | false (0)
COC(=O)/C=C1/SC(=Nc2ccc(C)cc2)N(CCc2c[nH]c3ccc(O)cc23)C1=O | false (0)
Clc1ccc(Nc2nnc(COc3ccccc3)c3ccccc23)cc1 | true (1)
NC(=O)c1c(NC(=O)c2ccccc2)sc2c1CCC(=O)C2 | false (0)
COc1cc(CNS(=O)(=O)c2ccc(C)cc2)ccc1OCc1cn(-c2ccc(Br)cc2)nn1 | false (0)
CCCCCCCCCCCCCCCC(N)c1ccccc1 (stereo unspecified) | true (1)
Clc1ccc2c(c1)N(c1ncnc3ccc(-c4cnc5[nH]ncc5c4)cc13)CC2 | false (0)
C=C1C(=O)O[C@H]2[C@H]1CC/C(COC(=O)NCc1ccc(Cn3c(=O)sn(CCI)c3=O)cc1)=C\CC[C@@]1(C)O[C@@H]21 | false (0)
N#C/C(=C\c1ccc2ccccc2c1)c1cc2ccccc2[nH]1 | false (0)
Cc1cccc2c1NC(=O)C2(c1ccc(O)cc1)c1ccc(O)cc1 | true (1)
CN(CCOc1ccc(C#N)cc1)CCOc1ccc(C#N)cc1 | false (0)
CCOC(=O)c1c(C)c2c(n1C)CSc1cc(C(=O)c3ccccc3)c(=O)[nH]c1-2 | false (0)
O=c1oc2c(cnc3ccccc32)cc1-c1ccsc1 | false (0)
Cc1ccc(-c2nc(/C=C3/C(=O)Nc4ccccc43)c3ccccn23)cc1 | false (0)
CCCCNC(=O)Oc1ccc(/C(=C(/CC)Cc2ccccc2)c2ccc(OCCN3CCCCCC3)cc2)cc1 | false (0)
O=C1Nc2ccccc2/C1=C\c1nc(-c2ccccc2)n2ccccc12 | false (0)
Fc1ccc(-c2nn(-c3ccccc3)cc2-c2nc3ccccc3o2)cc1 | false (0)
